Tested on: UACC-257 melanoma
Assay: NCI tumour cell line growth inhibition, 48 h
Items are presented alongside their recorded GI50.

CCCCCCCCNc1cc2c3c(c1)CCCN3CCC2
1.03 µM
COC(=O)c1ccc(-c2nc3cc(Cl)c(Cl)cc3nc2C#N)cc1
> 100 µM
CCN1C(=O)N(CC)C2C1NN=c1s/c(=C\c3cccc(F)c3)c(=O)n12 (stereo unspecified)
30 µM
C=C(CN1C(=O)CN(C)C1=O)c1ccc(C(=O)Nc2ccccc2N)cc1
5.89 µM
O=c1[nH]c(=O)c2cn[nH]c2[nH]1
> 100 µM

Exercise: Look up GI50 for this compound: `N#Cc1ccc(OCc2nc(N)nc(N)c2-c2ccc(Cl)c(Cl)c2)cc1`
Key: 0.593 µM

Exercise: // query: CC(=O)NC1C(OC[C@@H](CC(=O)N[C@@H](CC(=O)O)CC(=O)N[C@H](CC(=O)N[C@@H](CCCN)CC(=O)N[C@@H](CCCN)CC(=O)N[C@H](CC(N)=O)C(C)C)C(C)C)NC(=O)C[C@@H](N)C(C)C)OC(CO)C(O)C1O (stereo partly specified)
Key: > 100 µM

Exercise: // query: C/C=C(\C)C(=O)NC1=CC[C@@]2(C)C(=CCC3C2CC[C@@]2(C)C3CC[C@@H]2C(C)N(C)C)C1=O (stereo partly specified)
Key: 2.88 µM

Exercise: // query: `COc1ncnc2c(-c3ccccc3)cn(COCc3ccccc3)c12`
Key: 2.74 µM

Exercise: // query: `C[C@]12CC[C@@H]3c4ccc(OC(=O)N(CCCl)CCCl)cc4CC[C@H]3[C@@H]1CC[C@@H]2O`
Key: 3.81 µM

Exercise: // query: `CCOC(=O)/C(C=Nc1ccc(-c2nc3ccccc3[nH]2)cc1)=C(/C)O`
Key: 11.5 µM

---

Items are presented alongside their recorded TGI.
System: HOP-62 NSCLC
Assay: NCI tumour cell line growth inhibition, 48 h

Fc1ccc(Oc2nc3ccc(C(F)(F)F)cc3nc2-c2ccccc2)cc1
> 100 µM
COc1cc(/C=C\c2cc(OC)c(OC)c(OC)c2)cc(NC(=O)/C=C/c2cc(OC)c(OC)c(OC)c2)c1OC
> 100 µM
CN(Cc1ccccc1)C(=NC#N)N(Cc1ccccc1)Cc1ccccc1
84.8 µM

Exercise: Look up TGI for this molecule: O=NN1C(c2ccccc2)CC(=NO)CC1c1ccccc1 (stereo unspecified)
Key: > 100 µM

Exercise: // query: `O=C(c1ccccc1)c1ccccc1-c1ccccc1`
Key: > 100 µM

Exercise: // query: c1cncc(C2(c3cc4ccccc4[nH]3)COCO2)c1 (stereo unspecified)
Key: > 100 µM

---

Tested on: 786-0 renal
Test: NCI tumour cell line growth inhibition, 48 h; in the data active means GI50 below about 0.43 µM; inactive means the rest
One label from this list, please: active, inactive

O=c1[nH]c(=O)c2cn[nH]c2[nH]1
inactive
CC[C@@H]1c2c(C#N)ncn2-c2cnc(Nc3ccc(C(=O)NC4CCN(C5CCN(CC6CC6)CC5)CC4)cc3OC)nc2N1C1CCCC1
active
COc1ccc(C(=S)N2CCN(c3cccc(C)c3)CC2)cc1OC
inactive

Exercise: Check the results log: what was the call for `C=C1C(=O)O[C@H]2[C@H]1CC/C(COC(=O)CSCSCC(=O)OC/C1=C/CC[C@@]3(C)O[C@H]3[C@H]3OC(=O)C(=C)[C@@H]3CC1)=C\CC[C@@]1(C)O[C@@H]21` ?
Key: inactive

Exercise: // query: `COc1cccc(N2CCN(CC(=O)N3CCN(c4nnc(-c5ccc(Cl)cc5)c(-c5ccc(Cl)cc5)n4)CC3)CC2)c1`
Key: inactive

Exercise: // query: CCN1C(=O)N(CC)C2C1NN=c1s/c(=C\c3cccc(F)c3)c(=O)n12 (stereo unspecified)
Key: inactive

Exercise: // query: `COC12C=C/C(=C(/C(=O)OCc3cncnc3)C(=O)CCCCCCCCC3(OC)C=C/C(=C(/C(=O)OCc4cncnc4)C(=O)CCCCCCCC1)O3)O2`
Key: inactive

Exercise: // query: `COC(=O)c1ccc(-c2nc3cc(Cl)c(Cl)cc3nc2C#N)cc1`
Key: inactive

Exercise: // query: `CCCCON(OC(=O)c1ccc2ccccc2c1)C(=O)c1ccccc1`
Key: inactive

Exercise: // query: C[C@@]1(C(=O)O)CCC[C@]2(C)C1CC[C@@]13CC(=O)[C@@](CO)(CC[C@]12O)C3 (stereo partly specified)
Key: inactive

Exercise: // query: `COc1ccc2[nH]cc(-c3ccc(-c4c[nH]c5ccc(OC)cc45)s3)c2c1`
Key: inactive

Exercise: // query: `O=C1C(Cl)=C(Nc2cccc(Cl)c2)C(=O)N1Cc1ccc(Cl)cc1`
Key: active

---

Test system: CAKI-1 renal
Assay: NCI tumour cell line growth inhibition, 48 h
property: TGI

Record excerpt, results attached:
N.N.N.N.N.NC(=O)c1nn[n-]n1.[Cl-].[Co+3]
> 100 µM
N#Cc1ccc(OCc2nc(N)nc(N)c2-c2ccc(Cl)c(Cl)c2)cc1
> 100 µM
Cc1c2ccncc2c(C)c2c1[nH]c1ccc(OC(C)C)cc12
2.96 µM
C=CCN=c1sc2c(n1NC(=O)c1cc3ccc1CCc1ccc(cc1)CC3)C(=O)c1ccccc1C2=O
2.86 µM
CC(C)(C)[Si](C)(C)OCC1OC(n2cnc3c(N)ncnc32)CC1O (configuration not stated)
> 100 µM
C=CCOc1cc(NC(=S)c2ccoc2C)ccc1OC
> 100 µM
O=c1[nH]nnc2c1ncn2C1OC(CO)C(O)C1O (configuration not stated)
32.5 µM
CC(CC[C@@H](O)C(C)(C)O)C1[C@@H](O)CC2(C)C3CC(O)C4C(C)(C)[C@@H](OC5OC(CO)C(O)C(O)C5O)CC[C@@]45C[C@@]35CC[C@]12C (some centres not stated)
> 10 µM
C=C(CN1C(=O)CN(C)C1=O)c1ccc(C(=O)Nc2ccccc2N)cc1
58.7 µM
CCOC(=O)C12CCCC1(O)N(NC(=O)OC(C)(C)C)C(C)=C2C(=O)OC (configuration not stated)
> 100 µM

Exercise: Look up TGI for this compound: `O=C1N=C(SC(SC2=NC(=O)C3(NN2)c2ccccc2-c2ccccc23)=C(SC2=NC(=O)C3(NN2)c2ccccc2-c2ccccc23)SC2=NC(=O)C3(NN2)c2ccccc2-c2ccccc23)NNC12c1ccccc1-c1ccccc12`
Key: > 10 µM

Exercise: // query: `O.O.[NH-]C1(C(=O)O)CCCC1.[NH-]C1(C(=O)O)CCCC1.[Ni+2]`
Key: > 100 µM

---

Tested on: SK-MEL-5 melanoma
Experiment: NCI tumour cell line growth inhibition, 48 h
Items are presented alongside their recorded TGI.

Record excerpt, results attached:
N=C(N)C1CN(CCCCCCCCCCN2CC(C(=N)N)C(=O)NC2=O)C(=O)NC1=O (stereo unspecified)
> 10 µM
CC(=O)NC1C(OC[C@@H](CC(=O)N[C@@H](CC(=O)O)CC(=O)N[C@H](CC(=O)N[C@@H](CCCN)CC(=O)N[C@@H](CCCN)CC(=O)N[C@H](CC(N)=O)C(C)C)C(C)C)NC(=O)C[C@@H](N)C(C)C)OC(CO)C(O)C1O (stereo partly specified)
> 100 µM
N=C1C(c2nc3ccccc3s2)=C(O)CN1c1ccc(F)c(Cl)c1
49.5 µM
Cc1ccc(Cc2n[nH]c(=O)n2Nc2ccccc2)cc1
> 100 µM
O=c1cc(-c2ccccc2)[nH]c2ccc(N3CCOCC3)cc12
14.3 µM

Exercise: Look up TGI for this molecule: `Cc1ccc2nc3c(=O)[nH]c(=O)nc-3n(C)c2c1C`
Key: > 100 µM

Exercise: // query: `O=[N+]([O-])c1c(F)c(F)c2c(c1F)Nc1ccccc1S2`
Key: 23.8 µM

---

Tested on: HT29 colon
Assay: NCI tumour cell line growth inhibition, 48 h
property: TGI

Record excerpt, results attached:
C=C(CN1C(=O)CN(C)C1=O)c1ccc(C(=O)Nc2ccccc2N)cc1
41.5 µM
CN1Cc2cc3cc4c(cc3nc2N(C)C1)OCCO4
> 100 µM

Exercise: Look up TGI for this compound: O=C(O)CCC(=O)N1c2ccccc2CC1c1c[nH]c2ccccc12 (stereo not given)
Key: > 100 µM

Exercise: // query: `NC(=O)Nc1ccc(S(=O)(=O)Nc2ccc(S(N)(=O)=O)cc2)cc1`
Key: > 100 µM

Exercise: // query: CC1CCC2(O)C3(C)CC4(O)OC2(C1O)C1(O)C3(O)C(OC(=O)c2ccc[nH]2)C(O)(C(C)C)C41C (stereo not given)
Key: > 100 µM

---

Tested on: SK-OV-3 ovarian
Experiment: NCI tumour cell line growth inhibition, 48 h
property: TGI

Record excerpt, results attached:
Cc1ccc2nc(Cl)c(/C=N/N3C(=O)/C(=C/c4cccc([N+](=O)[O-])c4)N=C3c3ccccc3)cc2c1
> 100 µM
CC(C)=CC1C[C@H](C2CC=C3C2(C)CCC2[C@@]3(C)C(=O)CC3[C@]2(C)C=CC(=O)[C@]3(C)CO)CO1 (stereo partly specified)
39.6 µM
COC(=O)C1=C(C)NC(C)=C(C(=O)OC)C1c1ccccc1NO
> 100 µM

Exercise: Look up TGI for this compound: CCc1cc2c(c3c1CCC3=O)CC1(Cc3ccc(C)cc3C1)C2 (stereo unspecified)
Key: > 100 µM

Exercise: // query: CC(=O)OCC1=C(C(=O)O)N2C(=O)C(NC(=O)CSc3ccncc3)C2SC1 (stereo unspecified)
Key: > 100 µM

Exercise: // query: `Cn1c(=O)c2c(nc3n(CCCCl)c(=O)ccn23)n(C)c1=O`
Key: > 100 µM

Values compiled from PubChem BioAssay (NCI).
